Reported EC50 is given for each of the following compounds.
- SYSTEM UNDER TEST: TEAD2 TAZ (amino acids 13-57) (Homo sapiens)
- Sequence (Q15562 217-447): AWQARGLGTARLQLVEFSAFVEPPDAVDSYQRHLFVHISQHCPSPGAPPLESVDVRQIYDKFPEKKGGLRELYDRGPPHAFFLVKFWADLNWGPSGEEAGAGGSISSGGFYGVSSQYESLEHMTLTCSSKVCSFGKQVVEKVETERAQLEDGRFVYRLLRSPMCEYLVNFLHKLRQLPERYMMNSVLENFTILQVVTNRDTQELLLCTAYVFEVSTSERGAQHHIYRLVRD
- METHOD NOTES: TEAD2-TAZ HTRF (TR-FRET) protein-protein interaction assay
- MEASUREMENT CONTEXT: TEAD2-TAZ HTRF, TR-FRET 665 nm/615 nm; read-out: TEAD2 TAZ HTRF combined: EC50

COMPOUND: CCN(C)C(=O)c1nn2c(=O)cc(-c3ccc(C4CCCCC4)cc3)[nH]c2c1C(=O)N1CC(CF)C1
EC50: 0.02 µM

COMPOUND: C[C@H](CO)c1nn2c(=O)cc(-c3ccc(C4CCCCC4)cc3)[nH]c2c1C(=O)N1CC(CF)C1 (single isomer, unassigned) [Enantiomer A, Example 55]
EC50: 0.01 µM

COMPOUND: Cc1nccnc1-c1nn2c(=O)cc(-c3ccc(C4CCC(F)(F)CC4)cc3)[nH]c2c1C(=O)N1CC(CF)C1
EC50: 0.05 µM

COMPOUND: CCCCCCCCCc1cc(=O)n2nc(-c3nccnc3C)c(C(=O)N3C[C@H](CF)[C@@H]3C)c2[nH]1
EC50: 0.01 µM

COMPOUND: Cc1c(-c2nn3c(=O)cc(-c4ccc(C5CCCCC5)cc4)[nH]c3c2C(=O)N2CC(CF)C2)ncn1C
EC50: 0.01 µM

COMPOUND: CC(C)(C)c1ccc(COc2cc(=O)n3nc(-c4ncccn4)c(C(=O)N4CC(CF)C4)c3[nH]2)cc1
EC50: 0.02 µM

COMPOUND: C[C@@H](CO)c1nn2c(=O)cc(-c3ccc(C4CCCCC4)cc3)[nH]c2c1C(=O)N1CC(CF)C1 (single isomer, unassigned) [Enantiomer B, Example 55]
EC50: 0.02 µM

COMPOUND: Cc1nccnc1-c1nn2c(=O)cc(-c3ccc(O[C@H](c4ccccc4)C(F)(F)F)cc3)[nH]c2c1C(=O)N1CC(CF)C1
EC50: 0.06 µM

COMPOUND: Cc1nccnc1-c1nn2c(=O)cc(-c3ccc(C4CCCCC4)cc3)[nH]c2c1C(=O)N1C[C@H](CF)[C@@H]1C (single isomer, unassigned) [Isomer B, Example 41]
EC50: 0.02 µM

COMPOUND: O=C(c1c(-c2ncccn2)nn2c(=O)cc(-c3ccc(C4CCCCC4)c(F)c3)[nH]c12)N1CC(CF)C1
EC50: 0.02 µM

COMPOUND: CN(C)C(=O)c1nn2c(=O)cc(-c3ccc(C4CCCCC4)cc3)[nH]c2c1C(=O)N1CC(CF)C1
EC50: 0.01 µM

COMPOUND: Cc1ccnc(-c2nn3c(=O)cc(-c4ccc(C5CCCCC5)cc4)[nH]c3c2C(=O)N2CC(CF)C2)c1C
EC50: 0.02 µM

COMPOUND: Cc1nccnc1-c1nn2c(=O)cc(-c3ccc(CC4CCCC4)cc3)[nH]c2c1C(=O)N1C[C@@H](CF)[C@H]1C (single isomer, unassigned) [Isomer A, Example 42]
EC50: 0.02 µM

----------
- SYSTEM UNDER TEST: TEAD3 TAZ (amino acids 13-57) (Homo sapiens, UniProt Q99594)
- Sequence (Q99594 173-435 limits assumed): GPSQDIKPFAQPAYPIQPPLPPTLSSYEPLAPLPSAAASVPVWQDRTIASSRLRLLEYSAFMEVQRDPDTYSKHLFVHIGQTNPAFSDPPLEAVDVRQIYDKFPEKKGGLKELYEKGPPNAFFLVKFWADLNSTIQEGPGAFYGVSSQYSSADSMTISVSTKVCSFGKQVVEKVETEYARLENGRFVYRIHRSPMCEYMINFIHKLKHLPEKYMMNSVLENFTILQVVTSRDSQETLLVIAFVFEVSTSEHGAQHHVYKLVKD
- METHOD NOTES: TEAD3-TAZ HTRF (TR-FRET) protein-protein interaction assay
- Format: binding
- MEASUREMENT CONTEXT: TEAD3-TAZ HTRF, TR-FRET 665 nm/615 nm; read-out: TEAD3 TAZ HTRF combined: EC50
ENDPOINT NAME: EC50 (nM)

MOLECULE: CCCCCCCCCc1cc(=O)n2nc(-c3nccnc3C)c(C(=O)N3C[C@H](CF)[C@@H]3C)c2[nH]1 [Compound 71]
SYSTEM UNDER TEST: TEAD3 TAZ (amino acids 13-57) (Homo sapiens, UniProt Q99594)
ENDPOINT NAME: EC50
READING: 50

MOLECULE: Cc1nccnc1-c1nn2c(=O)cc(-c3ccc(OC(c4ccccc4)C(F)(F)F)cc3)[nH]c2c1C(=O)N1C[C@H](CF)[C@@H]1C (single isomer, unassigned) [Final product obtained using Enantiomer B from Step 1, Example 56]
SYSTEM UNDER TEST: TEAD3 TAZ (amino acids 13-57) (Homo sapiens, UniProt Q99594)
ENDPOINT NAME: EC50
READING: 940

MOLECULE: CCCCCCC/C=C/c1cc(=O)n2nc(-c3nccnc3C)c(C(=O)N3C[C@H](CF)[C@@H]3C)c2[nH]1 [Compound 70]
SYSTEM UNDER TEST: TEAD3 TAZ (amino acids 13-57) (Homo sapiens, UniProt Q99594)
ENDPOINT NAME: EC50
READING: 30
